Kindly state aptazyme ON/OFF ratio for each of the entries shown.
B1: Pistol ribozyme (parent)
chain: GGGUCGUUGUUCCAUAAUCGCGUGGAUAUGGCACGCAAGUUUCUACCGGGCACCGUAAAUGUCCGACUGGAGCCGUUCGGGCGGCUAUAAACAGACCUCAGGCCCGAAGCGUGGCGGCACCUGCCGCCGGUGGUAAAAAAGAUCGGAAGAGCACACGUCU

- Variants of: B1
- test.protocol: aptazyme ON/OFF ratio, guanine; higher = stronger switching; co-transcriptional cleavage with and without guanine
Lab note: record just the number, no unit beside it.

The measured aptazyme ON/OFF ratio associated with U7A U8A G9A U10A C13G reads 1.05

Measured aptazyme ON/OFF ratio, U7A U8G G9U U10C U11G C13G : 1.38

Entry U8G U10C U11C C12U C13G , aptazyme ON/OFF ratio reported as 1.27

The recorded aptazyme ON/OFF ratio for U7A U8G G9C U11G C12U is 1.43

Summary for this variant, U7C U8C G9A U10C U11G C12A C13U : aptazyme ON/OFF ratio is 1.52

// field: aptazyme ON/OFF ratio; key: U8G G9C U10G C12A C13U ; value = 1.15

So, U7A U8A G9C U10C U11C C12U C13U ? Its aptazyme ON/OFF ratio was 1.05

U7G U8C U11C C12A has a reported aptazyme ON/OFF ratio of 1.69

Consider U7C U8A G9C U10G U11G C12U C13U . Its measured aptazyme ON/OFF ratio is 1.09

Entry U7A U8A G9A U10A U11A C12U C13G — recorded aptazyme ON/OFF ratio = 1.23

For this variant ( U8A G9A C12U ), measured aptazyme ON/OFF ratio is 1.33

Kindly note the recorded aptazyme ON/OFF ratio for U8C U10G C12U C13G , which is 1.11

aptazyme ON/OFF ratio for U7A U8G U10C U11C C13U is 1.12

GET /value?item= U7G U8A U11G C12A &field=aptazyme ON/OFF ratio returns 1.45

Record U7A G9C U10A U11A C12U , field aptazyme ON/OFF ratio: 1.07

aptazyme ON/OFF ratio for U7G U8A G9U U11G C12A C13U is 1.09

U8G G9C U10A U11A C12U C13G yielded aptazyme ON/OFF ratio of 1.1

Record U7C U8A G9A U11A . Reported aptazyme ON/OFF ratio: 1.17

// field: aptazyme ON/OFF ratio; key: G9C U10G U11A C13U ; value = 1.05

Entry under test: G9A U10A C12G C13G . Its aptazyme ON/OFF ratio was 1.33

response.value for U7A U8C G9A U10G C12G C13G (field: aptazyme ON/OFF ratio) = 1.2

The variant listed as U7A U8C U10A U11C C12A C13U has a reported aptazyme ON/OFF ratio of 1.08

Summary for this variant, G9A U10G U11C C12A C13U : aptazyme ON/OFF ratio is 1.25

Form: variant = U7A U8G U10A U11C C12A C13A ; aptazyme ON/OFF ratio = 1.26

Item: U7A G9C U10A U11G | aptazyme ON/OFF ratio: 1.09

Form field aptazyme ON/OFF ratio, entry U7A U8A G9A C12G : 1.4

Memo: U7C U8A U10C U11C C12A C13G , reported aptazyme ON/OFF ratio: 1.27

For this variant ( G9C U10G U11C C12A C13G ), measured aptazyme ON/OFF ratio is 1.15

aptazyme ON/OFF ratio measured on U7C U8C G9U U10G U11A C13U = 1.17

Sample U8G U10A C12G C13A ; aptazyme ON/OFF ratio observed: 1.16

The reported aptazyme ON/OFF ratio of the variant U10A U11C C12G C13A was 1.15

Data point: U7G U8C G9C U10A U11C C12A C13A ; aptazyme ON/OFF ratio = 1.28

Sure, the documented aptazyme ON/OFF ratio for U7A U8G G9A U10A U11A C12G is 1.46

The variant listed as U7A G9A U10C C12U C13G shows aptazyme ON/OFF ratio equal to 1.12

Entry U7G U8G G9C U10C U11A C12U , aptazyme ON/OFF ratio reported as 1.3

Lab book: aptazyme ON/OFF ratio of U7C U8A G9C U10G U11A C12G C13G noted as 1.19

Entry under test: U7C U11A C12U C13U . Its aptazyme ON/OFF ratio was 1.16

So for U7A C12G , the logged aptazyme ON/OFF ratio turned out to be 1.44

Consider G9U U10C U11C C12G C13U . Its measured aptazyme ON/OFF ratio is 1.1

GET /value?item= U7G G9U U10G U11G C12A &field=aptazyme ON/OFF ratio returns 1.11

So for U8C U10C C12G C13U , the logged aptazyme ON/OFF ratio turned out to be 1.33
